# experimentalDetails: UV-vis absorption, fluorescence emission, absolute fluorescence quantum yield and fluorescence lifetime
# Format: physicochemical
endpointName: ΦF, absolute fluorescence quantum yield (%)

> print(dat)
                                   compound                             endpointname  u  measurement
1  CCN1/C(=C/C=C2\C=C(C)C=C(/C=C/c3sc4ccccc4[n+]3CC)C2=O)Sc2ccccc21  ΦF, absolute fluorescence quantum yield  %         16.7
2  CCN1/C(=C/C=C2\C=C(C=O)C=C(/C=C/c3sc4ccccc4[n+]3CC)C2=O)Sc2ccccc21  ΦF, absolute fluorescence quantum yield  %         28.0
3  CCN1/C(=C/C=C/C=C/C=C/c2sc3ccccc3[n+]2CC)Sc2ccccc21 [TCy7, reference compound]  ΦF, absolute fluorescence quantum yield  %         19.3
4  CCN1/C(=C/C=C2\C=C(c3ccccc3)C=C(/C=C/c3sc4ccccc4[n+]3CC)C2=O)Sc2ccccc21  ΦF, absolute fluorescence quantum yield  %         17.2
5  CCOC(=O)C1=C/C(=C\C=C2/Sc3ccccc3N2CC)C(=O)C(/C=C/c2sc3ccccc3[n+]2CC)=C1  ΦF, absolute fluorescence quantum yield  %         31.4

Reference source: paper PMC10451034
